System: NCI-H460 lung
Test: NCI tumour cell line growth inhibition, 48 h
Parameter TGI: see the listing below.

C/C(=N\Nc1ccccc1)c1sc(-c2nc(C)c(/C(C)=N/Nc3ccccc3)s2)nc1C; > 100 µM

// TGI value for CC(=N/NC(=S)N1CCCCCC1)/C(C)=N\NC(=S)N1CCCCCC1 : 31.4 µM

// TGI value for Cc1cccc2c(N)c3cccc(C(=O)NCC[N+](C)(C)Cc4ccc([N+](=O)[O-])n4C)c3nc12 : > 46.6 µM

// TGI value for CCCCn1c(-c2ccccc2)cs/c1=N\N=C1C=C(C(C)(C)C)C(=O)C(C(C)(C)C)=C1 : > 100 µM

// TGI value for N/C(=N\N=C\c1cc2ccccc2s1)c1cnccn1 : > 100 µM

// TGI value for COc1ccccc1-n1cnc(N)c1C(=O)c1cc(OC)c(OC)c(OC)c1 : > 100 µM

// TGI value for COc1ccc(-c2nc(-c3ccc(OC)cc3)n(-c3ccccc3)n2)cc1 : > 100 µM

// TGI value for COc1c(C)c(C/C=C(\C)CC/C=C(\C)CC/C=C(\C)CCC=C(C)C)c(OC)c(OC)c1OC : > 100 µM

// TGI value for CC(C)C[C@H](CC(=O)O)C(=O)N[C@@H](Cc1c[nH]c2ccccc12)C(=O)N[C@@H](C)c1ccccc1 : > 25 µM

// TGI value for Cc1ccccc1/C=C/c1csnn1 : > 75.6 µM

// TGI value for C#CCN(N=O)C(=O)NC(CCCCNC(=O)OCc1ccccc1)C(=O)OCc1ccccc1 (stereo not given) : > 100 µM

// TGI value for COc1ccc(-n2cc(-c3cc(OC)c(OC)c(OC)c3)nc2SCc2ccc(Cl)cc2)cc1OC : > 100 µM

// TGI value for CC(=O)Nc1ccc(-c2nnc(SCC(=O)Nc3cccc(C)c3)o2)cc1 : 28.6 µM

// TGI value for COC(=O)C(=O)C(CC(=O)Nc1cc(Cl)ccc1Cl)C(=O)OC (stereo not given) : > 100 µM

// TGI value for CC[C@@]1(O)C(=O)OCc2c1cc1n(c2=O)Cc2cc3cc(Cl)ccc3nc2-1 : 0.0118 µM

// TGI value for Cc1cc(OCc2nc(N)nc(N)c2-c2ccc(Cl)c(Cl)c2)ccc1[N+](=O)[O-] : 4.88 µM

// TGI value for Nc1nc(=O)n(C2CC(O)C(CO)O2)cc1F (stereo not given) : > 100 µM

// TGI value for N#CCCN(CCC#N)c1ccc(/C=C(/NC(=O)c2cc([N+](=O)[O-])ccc2Cl)C(=O)N=[N+]=[N-])cc1 : > 100 µM

// TGI value for Cc1cc2c(cc1Cl)SC(N(c1ccccc1Cl)S(=O)(=O)c1ccc(Br)s1)=NS2(=O)=O : 36.3 µM

----------
Parameter TGI: see the listing below.
Tested on: CCRF-CEM leukemia
Experiment: NCI tumour cell line growth inhibition, 48 h

Reference set (5 entries):
Nc1cn(C2OC(CC(c3ccccc3)(c3ccccc3)c3ccccc3)C(O)C2O)c(=O)[nH]c1=O (centres undefined); 63.1 µM
Cc1ccccc1NC(=O)CC1C(=O)Nc2ccccc2S1=O (centres undefined); > 100 µM
CCOC(=O)Cc1c(C)c2ccc(OC(C)=O)c(OC(C)=O)c2oc1=O; 28.5 µM
Cc1ccccc1/C=C/c1csnn1; > 100 µM
O=CC(OC(=O)c1ccccc1)C(OC(=O)c1ccccc1)C(COC(c1ccccc1)(c1ccccc1)c1ccccc1)OC(=O)c1ccccc1 (centres undefined); 7.26 µM

Measured on CCRF-CEM leukemia, CCOC(=O)/C=C/n1c2ccccc2c(=O)c2cc(OC)ccc21 has a documented TGI of > 100 µM

Measured on CCRF-CEM leukemia, O/N=C1/CCCC/C1=C/C=C/c1ccccc1 has a documented TGI of 67 µM

Measured on CCRF-CEM leukemia, CN(C)c1ccc(/C=C/C(=O)c2cc(C(C)(C)C)c(O)c(C(C)(C)C)c2)cc1 has a documented TGI of > 25.7 µM

Measured on CCRF-CEM leukemia, COC(=O)[C@H](CNC(=O)/C=C/c1ccc(OC(C)=O)c(OC(C)=O)c1)NC(=O)/C=C/c1ccc(OC(C)=O)c(OC(C)=O)c1 has a documented TGI of > 100 µM

Measured on CCRF-CEM leukemia, Cn1c(N/N=C/c2ccccc2)nc(-c2ccc3c(c2)OCO3)c(C#N)c1=O has a documented TGI of > 100 µM
